# credit: paper PMC9482650

Listed here: items and their measured pKd.
Assay Target: T1, PDZRN3_1, Q9UPQ7
T1 sequence (Q9UPQ7 244-349, limits assumed, looked up): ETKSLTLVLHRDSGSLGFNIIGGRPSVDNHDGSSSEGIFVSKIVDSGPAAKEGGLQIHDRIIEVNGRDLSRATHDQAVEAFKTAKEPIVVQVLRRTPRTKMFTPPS
Protocol Notes: holdup assay
Design: key: below the threshold = too weak to quantify, mostly under pKd 3.1 to 4
Conditions Used: plain residues with an end cap or a label only (N-terminal biotin on a linker: ado-ado)
Simply state the number, no unit and no words.

Would you please look over these solved cases?
>>> print(df.to_string())
                            binder  measurement
0  PSVGSKKTVL [REELD1, A0A1B0GV85]         3.48
1        KPGKGSETVV [FZD4, Q9ULV1]         3.71

Proceed to the following item.
Given the binder GIKKITSTAL [RPS6KA3, P51812] , what is its reported pKd?
4.36
